Origin of the recorded values: ChEMBL document CHEMBL3507680

# measurement.description: Human HepG2 cell viability assay in 384 well format
# Assay type: toxicity, cell-based
# Set-up: dose 125 nL, time 70.5 hour; concentration not given beside the values
# measurement.context: HepG2 cells, read-out: Inhibition
Task for the reader: assign each of the following compounds its reported cytotoxicity at 70.5 h.
Numbers only, in %.

Known results for compounds:
Cc1ccc(S(=O)(=O)N2CC[C@@H]3C[C@H](NC(=O)c4ccncc4)[C@@H]32)cc1 : -2.83
Cc1cccc(N2Cc3nc(=O)[nH]n3C2=O)c1 : -14.3

List reported cytotoxicity at 70.5 h for each of these compounds:
1. O=C(NCCc1ccncc1)[C@H]1C[C@@H]2CCN(c3nncs3)C[C@H]2O1
2. NCCCn1nc(C(F)(F)F)c2c1CCC2
3. Cc1cc(NCCN)nc2ccccc12
4. NC1CCc2nc(-c3cccnc3)nc(Nc3ccc(F)cc3)c2C1 (centres undefined)

Response:
1. -11.9
2. -7.21
3. -11.3
4. 3.41

Take each entry in turn and give its cytotoxicity at 70.5 h.
1. CCn1ccc(-c2nnc(SCC(=O)Nc3ccc(C)cc3)n2CC)n1
2. COC[C@@H]1CCC[C@]12CN(S(=O)(=O)c1cn(C)cn1)CCO2
3. O=C(c1ccnc(CC2COc3ccccc3C2)c1)N1CCCC1 (centres undefined)

Response:
-13.9
-6.65
-23.5

// batch mode: one cytotoxicity at 70.5 h value per listed entry
1. CC(=O)N1CCCC2(C1)CN(C(=O)C1CCCCC1)CCO2 (centres undefined)
2. CCn1cc2c(n1)CN(Cc1ccc(C)o1)CC2COCC1CC1 (centres undefined)
3. C[S+]([O-])CCCNC(=O)c1cc(Br)c2c(c1)OCCO2 (centres undefined)
4. O=C(c1ccco1)N1CCO[C@@H]2CN(CC3CC3)CC[C@@H]2C1
5. COCCN(C)S(=O)(=O)c1cc(C)cc(F)c1
6. CCOCCCC(=O)NCc1ccnc(N2CCN(C)CC2)c1
7. COc1ccc2c(c1)OC1(CCN(Cc3ccc(C)cc3)CC1)CC2=O
8. Cc1nn(CC(=O)O)c(C)c1NS(=O)(=O)c1cc2ccccc2s1

Response:
23.5
-5.09
-0.213
28
-5.49
4.8
7.29
24.3

Below are some compounds; for each one, tell me its cytotoxicity at 70.5 h.
1. CCCS(=O)(=O)N1CCC2(CC1)CC(N1CCCC1)c1ccccc12 (centres undefined)
2. CCN(Cc1ccoc1)C(=O)c1cc(S(N)(=O)=O)c(C)o1
3. CNS(=O)(=O)c1ccc(CNC(=O)c2ccccn2)cc1
4. O=C(O)c1cc(Br)cnc1OCC1CC1
5. O=C(c1cccnc1)N1CCn2nnc(COc3ccccn3)c2C1

Response:
1: -8.52; 2: -5.31; 3: -9.5; 4: 2.88; 5: -14.2

Hi there! I need cytotoxicity at 70.5 h for each item below, if you can.
1. O=c1ccc2c([nH]1)CCC(NCc1ccncc1)C2 (centres undefined)
2. CC(NC(=O)Nc1cccnc1N1CCCC1)c1ccncc1 (centres undefined)

Response:
1: -2.51; 2: 0.728

---

# measurement.description: Human HepG2 cell viability assay in 384 well format
# Assay type: toxicity, cell-based
# Parameters: dose 125 nL, time 70.5 hour; concentration not given beside the values
# measurement.context: HepG2 cells, read-out: Inhibition
Field: cytotoxicity at 70.5 h. Provide a value for each of the compounds that follow.
Numbers only, in %.

Check out these entries, answers already filled in.
Cc1cnn(CC2CCCN2C(=O)c2cccc(F)c2F)c1 (stereo unspecified) : -1.26
Cc1nn(CC(=O)O)c2nccc(-c3ccc(F)cc3)c12 : -8.88
COCC1CN(Cc2cc(C)on2)Cc2cn(CC3CCCC3)nc21 (stereo unspecified) : -8.99
CC(NC(=O)OC(C)(C)C)c1nnc(S(=O)(=O)Cc2ccc(Cl)cc2)o1 (stereo unspecified) : 4.02
O=C(NC1CC1)[C@H]1C[C@H]2OCC[C@H]2N(Cc2ccc3ccccc3n2)C1 : -4.59

Query: If you can, please state the reported cytotoxicity at 70.5 h value of O=C(Cc1cccc(O)c1)N1CCCC(O)(CN2CCOCC2)CC1 (stereo unspecified) .
Response: 0.936

---

# measurement.description: Human HepG2 cell viability assay in 384 well format
# Format: toxicity, cell-based
# Design: dose 125 nL, time 70.5 hour; concentration not given beside the values
# measurement.context: HepG2 cells, read-out: Inhibition
Task for the reader: assign each of the following molecules its reported cytotoxicity at 70.5 h.
Numbers only, in %.

Quick one: give me cytotoxicity at 70.5 h for each item below, same order please.
1. O=C(NC1CCCC1)c1nc2c(o1)CN(C(=O)CO)C2
2. CC1CCc2n[nH]c(C(=O)N3CCc4c(nc(N(C)C)[nH]c4=O)C3)c2C1 (stereo not given)

Response:
[-1.18, -13.8]

Your task in this section: give cytotoxicity at 70.5 h for each listed record.
1. CCCN1CCC(CC(=O)NCCc2nc(C)cc(C)n2)CC1
2. CS(=O)(=O)N1CCN(C(=O)c2cc(-c3cccs3)cs2)CC1
3. c1ccc(N2CCOC(Cc3cccnc3)C2)cc1 (stereo not given)

Response:
[-4.92, -5.33, -7.14]

State recorded cytotoxicity at 70.5 h for all listed molecules.
1. Cc1nc(CC(C)C)cc(C(=O)N2C[C@@H](CN(C)C)[C@@H](CO)C2)n1
2. CN(C)S(=O)(=O)c1ccc(CSCC(=O)NC(C)(C)C)o1
3. CCc1oc(C(=O)NCCc2cc(O)nc(C)n2)cc1CN1CCCC1
4. Fc1ccc(C(CNc2ccncn2)N2CCCCC2)cc1 (stereo not given)
5. NC(=O)CN1C(=O)CO[C@H]2CN(Cc3ccccc3)C[C@H]21

Response:
1. 6.25
2. -8.48
3. -6.98
4. -13.6
5. -0.937

Each molecule below has a recorded value; state its cytotoxicity at 70.5 h.
1. COC(=O)CCN1CCC(C(=O)c2cc(F)ccc2F)CC1
2. Cn1cnc2c(N3CCCC3)nc(C3CCNCC3)cc21
3. Cc1nc(NC(=O)OC(C)(C)C)sc1C(=O)O

Response:
1. -12.5
2. -17
3. 21.2

For each of the molecules below, note its cytotoxicity at 70.5 h.
1. Cc1cc2ccccc2n1CCC(=O)NCCN(C)S(C)(=O)=O
2. CS(=O)(=O)c1cn[nH]c1C1CCCCN1C(=O)c1ccsc1 (stereo not given)

Response:
-13.9
-1.64

Batch of 4 molecules: report cytotoxicity at 70.5 h for each.
1. Cn1nc2c(cc1=O)CN(Cc1nc3ccccc3c(=O)[nH]1)CC2
2. O=C(O)c1csc(S(=O)(=O)N2CCCc3ccc(F)cc32)c1
3. CCn1c(Cn2cncn2)nnc1C1CCN(CCN)CC1
4. O=C(Cc1noc2ccccc12)N1CCCC1c1noc(C2CC2)n1 (stereo not given)

Response:
-6.45
-0.904
17.7
32.1

Your task in this section: give cytotoxicity at 70.5 h for each listed record.
1. CCN(C)C[C@@H]1CN(Cc2cnc3c(S(C)(=O)=O)cnn3c2)C[C@@H]1CO
2. O=C(C1CNCCO1)N1CCC(c2cc(N3CCCC3)ncn2)CC1 (stereo not given)
3. Cc1ccc(C(=O)N2CCC3(CCC(=O)N(C(C)C)C3)CC2)c(O)c1
4. O=C(NCC1CCS(=O)(=O)C1)N(Cc1ccccn1)C1CC1 (stereo not given)
5. Cc1nnc(C2Cc3ccccc3CN2Cc2c(C)noc2C)o1 (stereo not given)

Response:
1.07
14.8
29.9
-6.34
-1.11

Report cytotoxicity at 70.5 h for every entry below.
1. O[C@@H]1C[C@@H](c2nc(Cc3ccccc3)no2)N(Cc2ccc(F)cc2)C1
2. O=C(O)[C@@H]1CN(C(=O)NCC2CCCCC2)C[C@H]1c1ccccn1

Response:
1: -19.1; 2: -2.76

---

# measurement.description: Human HepG2 cell viability assay in 384 well format
# Type: toxicity, cell-based
# Design: dose 125 nL, time 70.5 hour; concentration not given beside the values
# measurement.context: HepG2 cells, read-out: Inhibition
quantity: cytotoxicity at 70.5 h (%)
Numbers only, in %.

Can you give me cytotoxicity at 70.5 h for all of these, one by one?
1. OC1(CNCCN2CCc3ccccc32)CNCCOC1 (centres undefined)
2. Cc1cn2c(CN(C)C(=O)c3ncoc3C)c(C)nc2s1
3. COc1cccc(CN(C)Cc2nc3cc(C)ccc3[nH]2)c1O
4. O=C(c1cc(F)cc(F)c1)N1CCC2(CC1)CC2
5. CN(Cc1ccc(F)cc1)C(=O)CN1CCCC(Cn2cncn2)C1 (centres undefined)

Response:
-11
-0.848
-2.34
-9.31
3.89

Give cytotoxicity at 70.5 h for each of the items listed below.
1. CN1CCN(Cc2nnc(C3CCN(CC4CC4)CC3)n2C)CC1
2. CCOc1ccc(-n2nnc(C(=O)O)c2-c2ccccn2)cc1
3. CC(NC(=O)NCCCc1n[nH]c(N)c1C#N)c1ccc(F)cc1 (centres undefined)

Response:
-2.48
-11.9
-6.13

# return cytotoxicity at 70.5 h for each item in the list
1. CN(Cc1cc(-c2ccccc2)no1)CC1CCCN1c1cccnn1 (centres undefined)
2. c1cnc(N2CCOCC3(CN(Cc4ccsc4)CCO3)C2)nc1 (centres undefined)
3. c1ccc(-n2nnnc2NCc2ccc3c(c2)OCO3)cc1
4. Cc1cnn(CC2CCN(CC(O)Cn3cccn3)CC2)c1 (centres undefined)

Response:
[-8.09, -3.74, 4.41, -6.24]
